Target: UniProt Q86V86
Experiment: radiometric filter-binding kinase assay
Settings: compound 1.0 µM
measurement.kind: residual activity (%)

Below, 5 compounds whose answers are already recorded.
- compound: "NC(=O)c1cc2c(-c3cccc(-c4ccccc4)c3)cnc(N)c2s1"
  units.text: "%"
  endpoint.result: 88
- compound: "O=C(Nc1nc2cc(C(F)(F)F)cc(NC3CC3)n2n1)c1cccnc1"
  units.text: "%"
  endpoint.result: 95
- compound: "Nc1cccc2c1CN(C1CCC(=O)NC1=O)C2=O (stereo not given)"
  units.text: "%"
  endpoint.result: 101
- compound: "NC1(c2ccc(-c3nc4ccn5c(=O)[nH]nc5c4cc3-c3ccccc3)cc2)CCC1"
  units.text: "%"
  endpoint.result: 83
- compound: "O=C(N[C@@H](COc1ccc2[nH]c(=O)[nH]c2c1)c1ccccc1)c1cccn(Cc2ccc(F)c(F)c2)c1=O"
  units.text: "%"
  endpoint.result: 108

[1] CN(C)C/C=C/C(=O)Nc1cccc(C(=O)Nc2ccc(Nc3nccc(-c4cccnc4)n3)cc2)c1
[2] CNC(=O)C1[C@H]2O[C@@](C)([C@@H]1N)n1c3ccccc3c3c4c(c5c6ccccc6n2c5c31)C(=O)NC4 (stereo not given in full)
-- ask Problem: Given the entries 1 and 2 , determine which has the lower reported residual activity. # answer = label of selected item
-- reply 2
(2: 10%, 1: 84%)

Origin of values: the kinase profiling compilation of Christmann-Franck et al. (2016)
